These data points were gathered from patent US20250368649A1.

The molecules listed here are annotated with their inhibition at 0.1 µM.
Test system: ASPC1 cells
measurementNotes: Inhibition of KRas-mediated phosphorylation of ERK (Cisbio HTRF pERK), ASPC1 cells
Type: cell-based
testContext: Homo sapiens, ASPC1; single point at 100 nM; AsPC-1 cells; 3 hrs compound incubation
measuredMetric: inhibition at 0.1 µM (%)

• CCc1c(F)ccc2cc(O)cc(N3CCc4c(nc(OC[C@@]56CCCN5C[C@H](F)C6)nc4N4CCCn5nc(C(=O)N6CC7CNC(C7)C6)cc5C4)C3)c12 (stereo partly drawn) = 34
• O=C1NC(=O)C2CN(c3nc(OCC45CCCN4CCC5)nc4c3CCN(c3cc(O)cc(Cl)c3C3CC3)C4)CC12 (stereo not drawn) = -9
• CCc1c(F)ccc2cc(O)cc(N3CCc4c(nc(OC[C@@]56CCCN5C[C@H](F)C6)nc4N4CCCn5nc(C(=O)N6CC7CC(C6)N(C)C7)cc5C4)C3)c12 (stereo partly drawn) = 91
• CCc1c(F)ccc2cc(O)cc(N3CCc4c(nc(OC[C@@]56CCCN5C[C@H](F)C6)nc4N4CCCn5nc(C(=O)N6[C@@H]7CNC[C@H]6C7)cc5C4)C3)c12 = 47
• CCc1c(F)ccc2cc(O)cc(N3CCc4c(nc(OC[C@@]56CCCN5C[C@H](F)C6)nc4N4CCCCC(COCC(=O)N(C)C)C4)C3)c12 (stereo partly drawn) = -4
• CC1(O)COCCN(c2nc(OCC34CCCN3CCC4)nc3c2CCN(c2cc(O)cc(Cl)c2C2CC2)C3)C1 (stereo not drawn) = -12
